Reported growth inhibition values follow for various compounds
test: NCI Yeast Anticancer Drug Screen. Data for the cln2 rad14 strain (AID 165);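 further: 0% = growth equal to vehicle treated cultures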; conditions: S. cerevisiae cln2 rad14 strain, at 50.0 µM, stronger effect = higher value
About 79,000 compounds went through this panel and 15% of them were active in at least one assay; those are over-represented in the sample as a whole.
measurement label: growth inhibition (%)

compound="CC1OC(O[C@@H]2C=C3CC[C@@H]4[C@H](CC[C@]5(C)[C@@H](c6ccc(=O)oc6)CC[C@]45O)[C@@]3(C)CC2)C(O)C(OC2OC(CO)C(O)C(O)C2O)C1O (stereo partly drawn)" measurement_label="growth inhibition" unit_of_measurement=% observed=10.8
compound="NP(=O)(OCCC(OCc1ccccc1)OCc1ccccc1)N(CCCl)CCCl (stereo not drawn)" measurement_label="growth inhibition" unit_of_measurement=% observed=48.5
compound=O=C(COc1cccc(Cl)c1Cl)Nc1ccc[n+](Cc2ccc(S(=O)(=O)F)cc2)c1 measurement_label="growth inhibition" unit_of_measurement=% observed=31.2
compound=CCCCC1(CCSC(=S)OCC)C(=O)NC(=O)NC1=O measurement_label="growth inhibition" unit_of_measurement=% observed=-36.4
compound="O=P1(N(CCCl)CCCl)NCCCO1 (stereo not drawn)" measurement_label="growth inhibition" unit_of_measurement=% observed=4.8
compound="COC(=O)C1c2cc(OC)c(OC)cc2C(=O)N2CCc3cc4c(cc3C12)OCO4 (stereo not drawn)" measurement_label="growth inhibition" unit_of_measurement=% observed=12.1
compound=CN1CCc2cc3c(cc2[C@H]1[C@@H]1OC(=O)c2c1ccc1c2OCO1)OCO3 measurement_label="growth inhibition" unit_of_measurement=% observed=-0.25
compound=Cn1nc2ccc3nccc(NCCNCCCl)c3c2n1 measurement_label="growth inhibition" unit_of_measurement=% observed=2.7
compound=Cc1ccccc1.[C-]#[O+].[C-]#[O+].[C-]#[O+].[W] measurement_label="growth inhibition" unit_of_measurement=% observed=28.2
compound="CC(C)(C)N1COC2CCCCC21 (stereo not drawn)" measurement_label="growth inhibition" unit_of_measurement=% observed=-4.25
compound=Cn1nnc(-c2nnn(C)n2)n1 measurement_label="growth inhibition" unit_of_measurement=% observed=-14.8
compound=O=C(O)/C=C/C(=O)O.[Ni] measurement_label="growth inhibition" unit_of_measurement=% observed=-45.5
compound=S=P(Oc1cc(Cl)c(Cl)cc1Cl)(N1CCOCC1)N1CCOCC1 measurement_label="growth inhibition" unit_of_measurement=% observed=35
compound=Cn1nnc(C(N)=O)n1 measurement_label="growth inhibition" unit_of_measurement=% observed=-12.8
compound=CC1=C(C)C(=O)O[C@@H]([C@](C)(O)[C@]2(O)CC[C@@]3(O)[C@@H]4C[C@H]5O[C@]56[C@@H](O)C=CC(=O)[C@]6(C)[C@H]4CC[C@]23C)C1 measurement_label="growth inhibition" unit_of_measurement=% observed=13.4
compound=CCOC(OCC)c1ccc2c(c1)OCO2 measurement_label="growth inhibition" unit_of_measurement=% observed=4.7
compound=CCOC(=O)P(=O)(OCC)OCC measurement_label="growth inhibition" unit_of_measurement=% observed=-1.2
compound=NC(N)=NN(N=O)C1CCCCC1 measurement_label="growth inhibition" unit_of_measurement=% observed=-34.8
compound=[N-]=[N+]=CC(=O)CCC(=O)C=[N+]=[N-] measurement_label="growth inhibition" unit_of_measurement=% observed=-19.5
compound=O=C(COc1ccccc1Cl)Nc1ccc[n+](Cc2ccc(S(=O)(=O)F)cc2)c1 measurement_label="growth inhibition" unit_of_measurement=% observed=-42.2
compound="CCOP(=S)(Oc1ccccc1[N+](=O)[O-])c1ccccc1 (stereo not drawn)" measurement_label="growth inhibition" unit_of_measurement=% observed=25.8
compound=O=P(OCCCl)(OCCCl)OCCCl measurement_label="growth inhibition" unit_of_measurement=% observed=-54.6
compound=CN1CN(c2ccccc2)C2(CCN(Cc3csc4ccccc34)CC2)C1=O measurement_label="growth inhibition" unit_of_measurement=% observed=-1.3
compound="CCC1(N)C(=O)OCc2c1cc1n(c2=O)Cc2cc3ccccc3nc2-1 (stereo not drawn)" measurement_label="growth inhibition" unit_of_measurement=% observed=-7.75
compound="CC1CNCCN1c1ccc(Cl)cc1 (stereo not drawn)" measurement_label="growth inhibition" unit_of_measurement=% observed=20.1
compound=C=CCN1CN(c2ccccc2)C2(CCN(CCCC3(c4ccc(F)cc4)OCCO3)CC2)C1=O measurement_label="growth inhibition" unit_of_measurement=% observed=0.4
compound=O=[N+]([O-])c1ccc(-n2nc3ccc4c(no[n+]4[O-])c3n2)cc1 measurement_label="growth inhibition" unit_of_measurement=% observed=16.6
compound=CCCCS(=O)(=O)Cl measurement_label="growth inhibition" unit_of_measurement=% observed=-12.5
compound=C=CCNC(=S)/N=C/c1c(O)[nH]c(=O)[nH]c1=O measurement_label="growth inhibition" unit_of_measurement=% observed=-47
compound=Cc1cc(C)c(C(=O)O)c(C)c1.[Hg] measurement_label="growth inhibition" unit_of_measurement=% observed=99.5
compound=CC(=O)C(C(C)=O)C(C)=O.[Cr] measurement_label="growth inhibition" unit_of_measurement=% observed=11.1
compound=N#CCc1ccccc1CC#N measurement_label="growth inhibition" unit_of_measurement=% observed=-19.7
compound=CCN(CC)C(=S)[S][Pb]([CH2]C)([CH2]C)[CH2]C measurement_label="growth inhibition" unit_of_measurement=% observed=16.9
compound=CCCC/C=C(/C)C1(CC)C(=O)NC(=O)NC1=O measurement_label="growth inhibition" unit_of_measurement=% observed=-28.1
compound=O=C1NC(=O)C(O)(Cc2ccccn2)C(=O)N1 measurement_label="growth inhibition" unit_of_measurement=% observed=13.2
compound="CC1=CC2OC3CC4OC(=O)/C=C/C=C/C(C(C)O)OCC/C(C)=C/C(=O)OCC2(CC1)C4(C)C31CO1 (stereo not drawn)" measurement_label="growth inhibition" unit_of_measurement=% observed=92.2
compound=Cc1cc(C)c(CCl)cc1CCl measurement_label="growth inhibition" unit_of_measurement=% observed=-7
compound=CC1(C)N=C(N)N=C(N)N1c1ccc(OCCOc2ccc(S(=O)(=O)F)cc2)cc1 measurement_label="growth inhibition" unit_of_measurement=% observed=-59.4
compound=Cc1ccc([NH-])c([NH-])c1.[Cl][Pt+2][Cl] measurement_label="growth inhibition" unit_of_measurement=% observed=12.3
compound=CCCCN1C(=O)CC(=O)N(c2ccccc2)C1=O measurement_label="growth inhibition" unit_of_measurement=% observed=14.3
compound=CCCCOC(=O)c1ccccc1C(=O)O.[Mn] measurement_label="growth inhibition" unit_of_measurement=% observed=-12.6
compound="OC(Cc1ccccn1)C(Cl)(Cl)Cl (stereo not drawn)" measurement_label="growth inhibition" unit_of_measurement=% observed=-15.6
compound=CCCC1(C(C)C)C(=O)NC(=S)NC1=O measurement_label="growth inhibition" unit_of_measurement=% observed=6.55
compound=O=C(COc1cccc(Cl)c1)NCc1ccccc1NC(=O)c1ccc(S(=O)(=O)F)cc1 measurement_label="growth inhibition" unit_of_measurement=% observed=89.9
compound=CC1(C)N=C(N)N=C(N)N1c1cccc(CCCCc2ccc(S(=O)(=O)F)c(Cl)c2)c1 measurement_label="growth inhibition" unit_of_measurement=% observed=99.4
compound=[C-]#[O+].[C-]#[O+].[Ir].[O-]c1cccc2cccnc12 measurement_label="growth inhibition" unit_of_measurement=% observed=12.7
compound=O=C(O)c1ccccc1N(CCO)CCCl measurement_label="growth inhibition" unit_of_measurement=% observed=21.6
compound="CC(C)C1C=Cc2ccccc21 (stereo not drawn)" measurement_label="growth inhibition" unit_of_measurement=% observed=-13.1

* * *

assay: NCI Yeast Anticancer Drug Screen. Data for the sgs1 mgt1 strain (AID 161);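 further: 0% = growth of cultures given vehicle only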; conditions: S. cerevisiae sgs1 mgt1 strain, at 50.0 µM, stronger effect = higher value
About 79,000 compounds went through this panel and 15% of them were active in at least one assay; those are over-represented in the sample as a whole.
Reported growth inhibition values follow for various molecules
measurement label: growth inhibition (%)

molecule=CCCCCCCCCCCC(=O)[O][Pb]([CH2]CCC)([CH2]CCC)[O]C(=O)CCCCCCCCCCC observed=13.2
molecule=CC1=CC(=Nc2ccc(N(CCCl)CCCl)cc2)C=C(C)C1=O observed=12.2
molecule="COc1ccc2c(c1)CC1N(C)CCC13CCCCC23 (stereo unspecified)" observed=-1.2
molecule="CNCC(C)c1ccccc1OC (stereo unspecified)" observed=2
molecule=CC1(C)N=C(N)N=C(N)N1c1ccc(OCCOc2ccc(S(=O)(=O)F)cc2)cc1 observed=-2.05
molecule=O=C1NC(=O)C(Cc2ccc3c(c2)OCO3)C(=O)N1 observed=4.95
molecule=O=[N+]([O-])c1ccc(P2(=O)Nc3ccccc3N2)cc1 observed=-8.6
molecule=CC(=O)CC(C)=O.CC(=O)CC(C)=O.[Cl][Sn][c]1ccccc1 observed=49.6
molecule=Cn1c(O)c(C=N)c(=O)[nH]c1=O observed=-1.65
molecule=COc1nc(N2CCNCC2)nc2c1CCCC2 observed=-21.1
molecule="CCOC(=O)C1C2(C)NC(=O)C1(Cc1ccccc1)c1cc(C)c(C)cc1O2 (stereo unspecified)" observed=-11.8
